Origin of the recorded values: patent US4076819A

Entries and their measured LD50 at 24 h follow.
- experiment summary: in vivo
- assay context: mouse, mice, intravenous route, calculated by method of Miller and Tainter, read-out: LD50 /24 hrs/kg body weight
Kindly answer with a numeric value in mg/kg, unit omitted.

q: Could you share which LD50 at 24 h value was measured for COc1ccc(CN2Cc3sccc3C(OC(C)=O)C2)cc1 (stereo not drawn) ?
a: 245

q: Queued: O=[N+]([O-])c1ccc(CN2Cc3sccc3C(O)C2)cc1 (stereo not drawn)
a: 150

q: Queued: O=C(CN1CCCC1)N1Cc2sccc2C(O)C1 (stereo not drawn)
a: 225

q: Queued: CC(=O)CCN1Cc2ccsc2C(O)C1 (stereo not drawn)
a: 260

q: Queued: CNC(=O)OC1CN(C)Cc2sccc21 (stereo not drawn)
a: 280

q: Queued: OC1CN(Cc2ccc(Cl)cc2)Cc2sccc21 (stereo not drawn)
a: 110
